- System: HCT-15 colon
- protocol_details: NCI tumour cell line growth inhibition, 48 h; in the data active means GI50 below about 0.43 µM; inactive means the rest
Outcomes: True = active, False = inactive

>>> category("COc1cccc(/C=N/Nc2ncnc3c2cnn3-c2cccc(OC)c2)c1")
"False"
>>> category("O=C(C[Si](CC(=O)c1cccc(C(F)(F)F)c1)CC(=O)c1cccc(C(F)(F)F)c1)c1cccc(C(F)(F)F)c1")
"False"
>>> category("Cc1c(C(N)=O)sc2c1c(=O)n(Cc1ccccc1)c1nnc(SCC(=O)Nc3ccc(Cl)cc3)n21")
"False"
>>> category("C[C@@H](O)[C@H]1C(=O)N2C(C(=O)O)=C(SCCN=CN)C[C@H]12")
"False"
>>> category("Cc1c(C(=O)O)n(-c2ccc(Cl)cc2)c2ncnc(N)c12")
"False"
>>> category("CC1CN1C1=CC(=O)c2c(c(CO)cn2C)C1=O (stereo not given)")
"True"
>>> category("COc1ccc(/C=N/C2=C(C#N)C(c3ccccc3)c3c(ccc4ccccc34)O2)cc1 (stereo not given)")
"False"
>>> category("Cc1ccc(C2=C(c3ccc(C)cc3)C3(c4ccc(C)cc4)[C@@H](C#N)[C@H](C#N)C2(c2ccc(C)cc2)S3=O)cc1 (stereo not given in full)")
"False"
>>> category("CCCCCCNC(=O)Nc1ccc2cc3ccc(NC(=O)NCCCCCC)cc3nc2c1")
"False"
>>> category("COC(=O)C(N)CSC(c1ccccc1)(c1ccccc1)c1ccccc1 (stereo not given)")
"False"

====

- System: OVCAR-8 ovarian
- protocol_details: NCI tumour cell line growth inhibition, 48 h; in the data active = GI50 below about 0.43 µM; inactive = the rest
Outcomes: class 1 (active), class 0 (inactive)

>>> category("Cc1nc2cc(-n3c(-c4ccc(F)cc4)nc4ccccc4c3=O)ccc2n1Cc1ccccc1")
"class 0"
>>> category("COC(=O)C(N)CSC(c1ccccc1)(c1ccccc1)c1ccccc1 (stereo not given)")
"class 0"
>>> category("COc1cc(O)c2c(=O)c(OC)c(-c3ccc(OC)c(OC)c3)oc2c1.[Co]")
"class 0"
>>> category("CCOC(=O)C1=C(C)N(c2ccc(OC)cc2)C2(O)C=CC(=O)C3C(=O)N(c4ccccc4)C(=O)C132 (stereo not given)")
"class 0"
>>> category("CC(=O)c1cc2c(c(O)c1C)C(=O)C(=O)c1c(O)cccc1-2")
"class 1"
>>> category("Cc1ccc(C2=C(c3ccc(C)cc3)C3(c4ccc(C)cc4)[C@@H](C#N)[C@H](C#N)C2(c2ccc(C)cc2)S3=O)cc1 (stereo not given in full)")
"class 0"
>>> category("CC(C)[C@]12O[C@H]1[C@@H]1O[C@]13[C@]1(O[C@H]1C[C@H]1C4=C(CC[C@@]13C)C(=O)OC4)[C@@H]2OC(=O)CN(C)C")
"class 1"
>>> category("Cc1cc(Nc2cccc(F)c2)nc(NCc2ccccc2)n1")
"class 0"
>>> category("CN([O-])c1nc(N(C)[O-])nc(N2CCOCC2)n1.CN([O-])c1nc(N(C)[OH2+])nc(N2CCOCC2)n1.[Fe+3]")
"class 0"
>>> category("COc1ccc(S(=O)(=O)Nc2cc(/C=C\\c3cc(OC)c(OC)c(OC)c3)cc(OC)c2OC)cc1")
"class 1"

====

- Test system: MDA-MB-435
- protocol_details: NCI tumour cell line growth inhibition, 48 h; in the data active = GI50 below about 0.43 µM; inactive = the rest
Outcomes: active, inactive

>>> category("CCOC(=O)C1=C(C)N(c2ccc(OC)cc2)C2(O)C=CC(=O)C3C(=O)N(c4ccccc4)C(=O)C132 (stereo not drawn)")
"inactive"
>>> category("Cc1cc(Nc2cccc(F)c2)nc(NCc2ccccc2)n1")
"inactive"
>>> category("CC(=O)c1cc2c(c(O)c1C)C(=O)C(=O)c1c(O)cccc1-2")
"active"
>>> category("Cn1cc(C2=C(c3cn(CCCO)c4ccccc34)C(=O)NC2=O)c2ccccc21")
"inactive"
>>> category("COc1ccc(S(=O)(=O)Nc2cc(/C=C\\c3cc(OC)c(OC)c(OC)c3)cc(OC)c2OC)cc1")
"active"
>>> category("COc1ccc2c(c1)C(=O)c1c-2n(CCCNCCO)c(=O)c2ccccc12")
"active"
>>> category("CCCCCCNC(=O)Nc1ccc2cc3ccc(NC(=O)NCCCCCC)cc3nc2c1")
"active"
>>> category("CCOC(=O)/C=C/C1=C(c2csc3ccccc23)c2ccccc2CC1")
"inactive"
>>> category("Clc1ccc(/C=C2\\CCCC3C2=Nc2ccccc2NC3c2ccc(Cl)cc2)cc1 (stereo not drawn)")
"inactive"
>>> category("NC(=O)c1cccc(N2Cc3ccccc3OC3=C2C(=O)c2c(O)ccc(O)c2C3=O)c1")
"inactive"
>>> category("CCOC(=O)c1cc2c(c3ccsc13)C1(C)CCC3c4ccc(OC)cc4CCC3C1C2 (stereo not drawn)")
"inactive"
>>> category("Cc1ccc(C2=C(c3ccc(C)cc3)C3(c4ccc(C)cc4)[C@@H](C#N)[C@H](C#N)C2(c2ccc(C)cc2)S3=O)cc1 (stereo partly drawn)")
"inactive"
>>> category("COC(=O)[C@@H](C[C@H](Cc1ccccc1)NC(=O)c1csc([C@@H](C[C@H](C(C)C)N(C)C(=O)[C@@H](NC(=O)[C@H]2CCCCN2C)C(C)C)OC(C)=O)n1)NC(=O)OCc1ccccc1")
"active"
